target: Recombinant human JARID1B/KDM5B (Homo sapiens, UniProt Q9UGL1); construct: purchased Active Motif 31432; host or cells: Sf9 insect cells; test: LANCE Ultra TR-FRET demethylase assay with FLAG-tagged JARID1B; assay type: biochemical; conditions: 100 nM compound; 500 nM biotinylated H3K4me3 peptide substrate
Sequence (Q9UGL1 whole entry): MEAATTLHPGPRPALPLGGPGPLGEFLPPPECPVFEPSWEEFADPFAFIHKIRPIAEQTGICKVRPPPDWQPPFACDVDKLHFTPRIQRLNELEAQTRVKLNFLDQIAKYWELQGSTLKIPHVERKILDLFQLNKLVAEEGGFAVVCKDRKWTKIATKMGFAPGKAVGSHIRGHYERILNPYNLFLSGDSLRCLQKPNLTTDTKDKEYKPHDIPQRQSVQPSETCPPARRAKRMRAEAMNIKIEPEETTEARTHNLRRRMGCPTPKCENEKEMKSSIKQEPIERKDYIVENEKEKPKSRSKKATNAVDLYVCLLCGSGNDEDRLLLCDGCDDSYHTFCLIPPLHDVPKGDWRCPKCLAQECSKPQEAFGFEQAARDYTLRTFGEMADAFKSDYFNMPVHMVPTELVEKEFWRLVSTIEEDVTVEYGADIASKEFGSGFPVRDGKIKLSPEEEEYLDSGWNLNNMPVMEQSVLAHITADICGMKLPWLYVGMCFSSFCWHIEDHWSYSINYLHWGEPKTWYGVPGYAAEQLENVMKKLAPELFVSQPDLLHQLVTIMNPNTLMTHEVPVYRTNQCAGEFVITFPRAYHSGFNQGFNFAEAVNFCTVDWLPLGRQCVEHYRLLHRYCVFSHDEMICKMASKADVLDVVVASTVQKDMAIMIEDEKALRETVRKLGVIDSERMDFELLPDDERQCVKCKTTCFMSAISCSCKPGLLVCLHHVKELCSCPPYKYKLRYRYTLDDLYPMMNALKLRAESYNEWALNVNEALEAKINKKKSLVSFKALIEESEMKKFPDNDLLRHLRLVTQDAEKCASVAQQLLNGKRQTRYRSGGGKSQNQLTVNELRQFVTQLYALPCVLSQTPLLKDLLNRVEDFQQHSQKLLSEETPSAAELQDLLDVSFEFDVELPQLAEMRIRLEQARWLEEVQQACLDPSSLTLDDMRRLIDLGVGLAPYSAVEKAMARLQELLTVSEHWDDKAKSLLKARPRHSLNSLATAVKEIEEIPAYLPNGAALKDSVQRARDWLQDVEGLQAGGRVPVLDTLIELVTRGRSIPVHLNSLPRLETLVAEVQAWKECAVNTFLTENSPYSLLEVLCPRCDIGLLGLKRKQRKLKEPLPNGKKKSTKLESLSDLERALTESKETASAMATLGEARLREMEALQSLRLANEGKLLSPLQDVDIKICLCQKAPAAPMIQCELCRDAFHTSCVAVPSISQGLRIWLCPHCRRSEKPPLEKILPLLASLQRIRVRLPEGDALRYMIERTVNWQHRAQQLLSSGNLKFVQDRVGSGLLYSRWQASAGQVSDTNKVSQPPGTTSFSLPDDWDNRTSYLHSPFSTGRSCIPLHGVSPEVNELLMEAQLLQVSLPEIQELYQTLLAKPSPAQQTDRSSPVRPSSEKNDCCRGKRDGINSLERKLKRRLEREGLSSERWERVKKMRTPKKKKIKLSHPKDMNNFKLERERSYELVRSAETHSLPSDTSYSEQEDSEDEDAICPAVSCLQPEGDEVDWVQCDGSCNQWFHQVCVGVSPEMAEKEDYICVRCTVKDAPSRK
endpoint name: inhibition at 0.1 µM

Consider the following illustrative entries.
compound	tgt	inhibition at 0.1 µM
CC(Oc1ccc(Cc2ccccc2)cc1)c1nc2c(CNCC3CCN(C)CC3)nccc2c(=O)[nH]1 (stereo not drawn)	Recombinant human JARID1B/KDM5B (Homo sapiens, UniProt Q9UGL1)	< 20%
O=c1[nH]c(COc2cc(C(F)(F)F)ccc2Cl)nc2c(CNCC3CCNCC3)nccc12	Recombinant human JARID1B/KDM5B (Homo sapiens, UniProt Q9UGL1)	20 to 50%
O=c1[nH]c(COc2ccc(F)c(Cl)c2)nc2c(CNCc3ccco3)nccc12	Recombinant human JARID1B/KDM5B (Homo sapiens, UniProt Q9UGL1)	20 to 50%
O=c1[nH]c(COc2ccc(F)c(Cl)c2)nc2c(CNCc3cccnc3)nccc12	Recombinant human JARID1B/KDM5B (Homo sapiens, UniProt Q9UGL1)	> 50%
Cc1ccc(OCc2nc3c(CNCC4CCNCC4)nccc3c(=O)[nH]2)cc1	Recombinant human JARID1B/KDM5B (Homo sapiens, UniProt Q9UGL1)	20 to 50%

// moving on: another record for inhibition at 0.1 µM
*Q* Name the recorded inhibition at 0.1 µM for CN1CCC(CNCc2nccc3c(=O)[nH]c(C4CCOC4)nc23)CC1 (stereo not drawn) .
*A* < 20%

###

Below, each of the compounds is paired with its reported inhibition at 0.1 µM value.
target: Recombinant human JARID1B/KDM5B (Homo sapiens, UniProt Q9UGL1); construct: purchased Active Motif 31432; host or cells: Sf9 insect cells; test: LANCE Ultra TR-FRET demethylase assay with FLAG-tagged JARID1B; format: biochemical; details: 100 nM compound; 500 nM biotinylated H3K4me3 peptide substrate

*Q* Name the recorded inhibition at 0.1 µM for O=c1[nH]c(COc2ccc(F)c(Cl)c2)nc2c(CNCc3ncco3)nccc12 .
*A* 20 to 50%

*Q* Name the recorded inhibition at 0.1 µM for O=c1[nH]c(COc2ccc(F)c(Cl)c2)nc2c(CNCCc3ccccn3)nccc12 .
*A* 20 to 50%

*Q* Name the recorded inhibition at 0.1 µM for CCCOC1CCN(Cc2cccc(OCc3nc4cnccc4c(=O)[nH]3)c2)CC1 .
*A* 20 to 50%

*Q* Name the recorded inhibition at 0.1 µM for CCN1CCC(CNCc2nccc3c(=O)[nH]c(COc4ccc(Cc5ccccc5)cc4)nc23)C1 (centres unmarked) .
*A* > 50%

*Q* Name the recorded inhibition at 0.1 µM for O=C(NCCN1CCOCC1)c1cccc(OCc2nc3cnccc3c(=O)[nH]2)c1 .
*A* < 20%

*Q* Name the recorded inhibition at 0.1 µM for CC(Oc1ccc(Cc2ccccc2)cc1)c1nc2c(CNC[C@H]3CCNC3)nccc2c(=O)[nH]1 (some centres unmarked) .
*A* 20 to 50%

*Q* Name the recorded inhibition at 0.1 µM for O=c1[nH]c(COc2ccc(F)c(Cl)c2)nc2c(CNCC3CCN(C4CCCC4)CC3)nccc12 .
*A* > 50%

*Q* Name the recorded inhibition at 0.1 µM for Cc1cccc(CCNCc2nccc3c(=O)[nH]c(COc4ccc(F)c(Cl)c4)nc23)n1 .
*A* < 20%
